Test system: NCI-H1650
ASSAY_OVERVIEW: relative viability (nuclei count vs DMSO), 5 days (fraction); higher = more cells survive
COND: first compound 2.53 µM
Reported relative viability values follow for various compounds

COc1nc(C)cnc1NS(=O)(=O)c1cccnc1-c1ccc(-c2nnco2)cc1 [Zibotentan] + O=C(c1cc(Cc2n[nH]c(=O)c3ccccc23)ccc1F)N1CCN(C(=O)C2CC2)CC1 [Olaparib] (partner 8 µM)
0.682
COc1nc(C)cnc1NS(=O)(=O)c1cccnc1-c1ccc(-c2nnco2)cc1 [Zibotentan] + CC(C)C[C@H](NC(=O)[C@H](Cc1ccccc1)NC(=O)c1cnccn1)B(O)O [Bortezomib] (partner 0.002 µM)
0.194
COc1nc(C)cnc1NS(=O)(=O)c1cccnc1-c1ccc(-c2nnco2)cc1 [Zibotentan] + Nc1ncn([C@H]2C[C@H](O)[C@@H](CO)O2)c(=O)n1 [Decitabine] (partner 2 µM)
0.488

# next compound below
Ask: State its relative viability: O=c1cc(-c2cccc3c2Sc2ccccc2S3)oc(N2CCOCC2)c1 + C[C@@H](Oc1cc(-c2cnn(C3CCNCC3)c2)cnc1N)c1c(Cl)ccc(F)c1Cl [Crizotinib] (partner 1 µM)
Reply: 0.963

* * *

Tested on: NCI-H522
ASSAY_OVERVIEW: relative viability (nuclei count vs DMSO), 5 days (fraction); higher = more cells survive
COND: first compound 0.3162 µM
Here the recorded relative viability is given for each entry.
Answer with a bare number; do not write a unit.

Before answering, review these 3 worked examples.
O=c1cc(N2CCOCC2)oc2c(-c3cccc4c3sc3ccccc34)cccc12 + Nc1nc2[nH]cc(CCc3ccc(C(=O)N[C@@H](CCC(=O)O)C(=O)O)cc3)c2c(=O)[nH]1 [Pemetrexed] (partner 0.2 µM)
1.13
O=c1cc(N2CCOCC2)oc2c(-c3cccc4c3sc3ccccc34)cccc12 + N=C(N)NC(=N)NCCc1ccccc1 [Phenformin] (partner 250 µM)
0.621
O=c1cc(N2CCOCC2)oc2c(-c3cccc4c3sc3ccccc34)cccc12 + Cc1nc(Nc2ncc(C(=O)Nc3c(C)cccc3Cl)s2)cc(N2CCN(CCO)CC2)n1 [Dasatinib] (partner 0.075 µM)
0.859

Ask: # return recorded relative viability for input O=c1cc(N2CCOCC2)oc2c(-c3cccc4c3sc3ccccc34)cccc12 + O=C(CCCCCCC(=O)Nc1ccccc1)NO [Vorinostat] (partner 1 µM)
Reply: 0.873

Ask: Give reported relative viability value for CCN(CC)CCCCNc1ncc2cc(-c3cc(OC)cc(OC)c3)c(NC(=O)NC(C)(C)C)nc2n1 + CC(=O)Nc1cccc(-n2c(=O)n(C3CC3)c(=O)c3c(Nc4ccc(I)cc4F)n(C)c(=O)c(C)c32)c1 [Trametinib] (partner 0.02 µM)
Reply: 0.664

* * *

Test system: NCI-H661
ASSAY_OVERVIEW: relative viability (nuclei count vs DMSO), 5 days (fraction); higher = more cells survive
COND: first compound 0.01 µM
PROPERTY_LABEL: relative viability
// no unit, no text: just the number

Field: example entries. Status: answers known.
O=c1cc(N2CCOCC2)oc2c(-c3cccc4c3sc3ccccc34)cccc12 + CCNC(=O)c1noc(-c2cc(C(C)C)c(O)cc2O)c1-c1ccc(CN2CCOCC2)cc1 [Luminespib] (partner 0.01 µM)
0.86
CCN(CC)CCCCNc1ncc2cc(-c3cc(OC)cc(OC)c3)c(NC(=O)NC(C)(C)C)nc2n1 + Cc1cc(Nc2cc(N3CCN(C)CC3)nc(Sc3ccc(NC(=O)C4CC4)cc3)n2)n[nH]1 [Tozasertib] (partner 0.1 µM)
0.38
O=c1cc(N2CCOCC2)oc2c(-c3cccc4c3sc3ccccc34)cccc12 + N=C(N)NC(=N)NCCc1ccccc1 [Phenformin] (partner 250 µM)
0.291
CCN(CC)CCCCNc1ncc2cc(-c3cc(OC)cc(OC)c3)c(NC(=O)NC(C)(C)C)nc2n1 + CC(C)C[C@H](NC(=O)[C@H](Cc1ccccc1)NC(=O)c1cnccn1)B(O)O [Bortezomib] (partner 0.002 µM)
0.892

Could you now look at the following compound, please?
Ask: With NCI-H661 as the test system, provide measured relative viability for this compound: O=c1cc(N2CCOCC2)oc2c(-c3cccc4c3sc3ccccc34)cccc12 + CC(=O)c1c(C)c2cnc(Nc3ccc(N4CCNCC4)cn3)nc2n(C2CCCC2)c1=O [Palbociclib] (partner 0.5 µM)
Reply: 0.417

* * *

# key: entry, value: relative viability
Tested on: NCI-H1793
ASSAY_OVERVIEW: relative viability (nuclei count vs DMSO), 5 days (fraction); higher = more cells survive
COND: first compound 8 µM
Enter a number only.

Answered cases to consult:
O=c1cc(-c2cccc3c2Sc2ccccc2S3)oc(N2CCOCC2)c1 + COc1cccc2cc(-c3nc([C@H]4CC[C@H](C(=O)O)CC4)n4ncnc(N)c34)[nH]c12 [OSI-027] (partner 0.5 µM)
0.267
O=c1cc(-c2cccc3c2Sc2ccccc2S3)oc(N2CCOCC2)c1 + Nc1nc2[nH]cc(CCc3ccc(C(=O)N[C@@H](CCC(=O)O)C(=O)O)cc3)c2c(=O)[nH]1 [Pemetrexed] (partner 0.2 µM)
1.2

Ask: Consider the compound O=c1cc(-c2cccc3c2Sc2ccccc2S3)oc(N2CCOCC2)c1 + Cc1nc(NC(=O)N2CCC[C@H]2C(N)=O)sc1-c1ccnc(C(C)(C)C(F)(F)F)c1 [Alpelisib] (partner 2 µM) . State its measured relative viability.
Reply: 0.689

* * *

Test system: NCI-H727
ASSAY_OVERVIEW: relative viability (nuclei count vs DMSO), 5 days (fraction); higher = more cells survive
COND: first compound 0.01 µM
// reported relative viability for each item listed

Ask: Query relative viability for O=c1cc(N2CCOCC2)oc2c(-c3cccc4c3sc3ccccc34)cccc12 + CC1(C)CCC(c2ccc(Cl)cc2)=C(CN2CCN(c3ccc(C(=O)NS(=O)(=O)c4ccc(N[C@H](CCN5CCOCC5)CSc5ccccc5)c(S(=O)(=O)C(F)(F)F)c4)cc3)CC2)C1 [Navitoclax] (partner 0.5 µM)
Reply: 0.47

Ask: Tell me relative viability reported for CCN(CC)CCCCNc1ncc2cc(-c3cc(OC)cc(OC)c3)c(NC(=O)NC(C)(C)C)nc2n1 + O=C(c1cc(Cc2n[nH]c(=O)c3ccccc23)ccc1F)N1CCN(C(=O)C2CC2)CC1 [Olaparib] (partner 8 µM)
Reply: 0.674

Ask: Identify the reported relative viability for the following entry. CCN(CC)CCCCNc1ncc2cc(-c3cc(OC)cc(OC)c3)c(NC(=O)NC(C)(C)C)nc2n1 + N=C(N)NC(=N)NCCc1ccccc1 [Phenformin] (partner 250 µM)
Reply: 0.509

Ask: State its relative viability for this molecule: CCN(CC)CCCCNc1ncc2cc(-c3cc(OC)cc(OC)c3)c(NC(=O)NC(C)(C)C)nc2n1 + CC(=O)c1c(C)c2cnc(Nc3ccc(N4CCNCC4)cn3)nc2n(C2CCCC2)c1=O [Palbociclib] (partner 0.5 µM)
Reply: 0.581

* * *

Test system: LCLC-103H
ASSAY_OVERVIEW: relative viability (nuclei count vs DMSO), 5 days (fraction); higher = more cells survive
COND: first compound 0.3162 µM
Listed compounds paired with reported relative viability
Lab note: jot down the number only; don't add units.

See these solved cases before continuing.
CCN(CC)CCCCNc1ncc2cc(-c3cc(OC)cc(OC)c3)c(NC(=O)NC(C)(C)C)nc2n1 + O=C(CCCCCCC(=O)Nc1ccccc1)NO [Vorinostat] (partner 1 µM)
0.788
CCN(CC)CCCCNc1ncc2cc(-c3cc(OC)cc(OC)c3)c(NC(=O)NC(C)(C)C)nc2n1 + C[C@@H](Oc1cc(-c2cnn(C3CCNCC3)c2)cnc1N)c1c(Cl)ccc(F)c1Cl [Crizotinib] (partner 1 µM)
1.05

Ask: Return relative viability (reported value) for this compound: O=c1cc(N2CCOCC2)oc2c(-c3cccc4c3sc3ccccc34)cccc12 + CC(=O)Nc1cccc(-n2c(=O)n(C3CC3)c(=O)c3c(Nc4ccc(I)cc4F)n(C)c(=O)c(C)c32)c1 [Trametinib] (partner 0.02 µM)
Reply: 0.652

Ask: Consider the compound CCN(CC)CCCCNc1ncc2cc(-c3cc(OC)cc(OC)c3)c(NC(=O)NC(C)(C)C)nc2n1 + COc1cccc2cc(-c3nc([C@H]4CC[C@H](C(=O)O)CC4)n4ncnc(N)c34)[nH]c12 [OSI-027] (partner 0.5 µM) and give its recorded relative viability.
Reply: 0.386

Ask: Kindly indicate its recorded relative viability. Item: CCN(CC)CCCCNc1ncc2cc(-c3cc(OC)cc(OC)c3)c(NC(=O)NC(C)(C)C)nc2n1 + N=C(N)NC(=N)NCCc1ccccc1 [Phenformin] (partner 250 µM)
Reply: 0.357

* * *

Test system: PC-3 [JPC-3]
ASSAY_OVERVIEW: relative viability (nuclei count vs DMSO), 5 days (fraction); higher = more cells survive
COND: first compound 2.53 µM
Reported values of relative viability for individual entries
Lab note: jot down the number only; don't add units.

Sample records with relative viability:
O=c1cc(-c2cccc3c2Sc2ccccc2S3)oc(N2CCOCC2)c1 + C[C@]1(O)C[C@@H](c2nc(-c3ccc4ccc(-c5ccccc5)nc4c3)c3c(N)nccn32)C1 [Linsitinib] (partner 1 µM)
0.972
COc1nc(C)cnc1NS(=O)(=O)c1cccnc1-c1ccc(-c2nnco2)cc1 [Zibotentan] + COc1cc2c(Oc3ccc(NC(=O)C4(C(=O)Nc5ccc(F)cc5)CC4)cc3F)ccnc2cc1OCCCN1CCOCC1 [Foretinib] (partner 0.25 µM)
0.973

# ---- query compound ----
Ask: Give reported relative viability for O=c1cc(-c2cccc3c2Sc2ccccc2S3)oc(N2CCOCC2)c1 + N=C(N)NC(=N)NCCc1ccccc1 [Phenformin] (partner 250 µM) (PC-3 [JPC-3])
Reply: 0.448
